Numbers sourced from patent US7405205B2.

- Test system: MIA PaCa-2 pancreatic cell carcinoma
- experimental-details: Relative colony forming efficiency after antisense treatment (Table 13)
- Type: cell-based, human
- setup-conditions: 0.2 μM antisense oligodeoxyribonucleotide phosphorothioate; MIA PaCa-2 cells; averages of 2-8 determinations
Strand notation (5' to 3'): a small letter for the sugar, then the base; units joined by * are phosphorothioate-linked, units joined directly phosphodiester-linked; [ ] holds rarer units or linkages, { } end groups; capitals alone tell only the bases. d = 2'-deoxy (DNA)
measurement-type: Reduced relative colony forming efficiency, expressed as % inhibition, MIA PaCa-2

A selection of reference data follows.
1) GAAGTCAGCATCCAAGGTAA (DNA, all phosphorothioate, methylation of C not given here) [AS-II-1342-20]    73.77%
2) AGCTGCTGCGGGTCCGTGAT (dA*dG*dC*dT*dG*dC*dT*dG*dC*dG*dG*dG*dT*dC*dC*dG*dT*dG*dA*dT; antisense) [AS-II-225-20]    95.44%
3) GAAGCCATAGAAACAGCGGG (antisense; DNA, all phosphorothioate, methylation of C not given here) [AS-II-667-20]    85.26%
4) TTCATGGTGTGGCTAGTTGG (DNA, all phosphorothioate, methylation of C not given here) [AS-II-1438-20]    42.13%

Given the sequence CTCTCTCCTCCGATGGTTTG (DNA, all phosphorothioate, methylation of C not given here) [AS-II-1040-20] , what is its reported Reduced relative colony forming efficiency, expressed as % inhibition, MIA PaCa-2?
43.52%

Next: CGGCGGCGTGTTCTCCTTGT (dC*dG*dG*dC*dG*dG*dC*dG*dT*dG*dT*dT*dC*dT*dC*dC*dT*dT*dG*dT; antisense) [AS-II-280-20]
53.94%

Next: GGGAGAGCATAGTGGAGGCG (dG*dG*dG*dA*dG*dA*dG*dC*dA*dT*dA*dG*dT*dG*dG*dA*dG*dG*dC*dG; antisense) [AS-II-185-20]
29.32%

###

- Tested on: PC-3 prostrate cell adenocarcinoma
- experimental-details: Relative colony forming efficiency after antisense treatment (Table 13)
- Format: cell-based, human
- setup-conditions: 0.2 μM antisense oligodeoxyribonucleotide phosphorothioate; PC-3 cells; averages of 2-8 determinations
Strand notation (5' to 3'): a small letter for the sugar, then the base; units joined by * are phosphorothioate-linked, units joined directly phosphodiester-linked; [ ] holds rarer units or linkages, { } end groups; capitals alone tell only the bases. d = 2'-deoxy (DNA)
measurement-type: Reduced relative colony forming efficiency, expressed as % inhibition, PC-3 (%)
Answer with a number only, understood to be in %.

A selection of reference data follows.
1. ACCCTTCCCATTGGCTGCGC (dA*dC*dC*dC*dT*dT*dC*dC*dC*dA*dT*dT*dG*dG*dC*dT*dG*dC*dG*dC; antisense) [AS-II-6-20]    89.21
2. AACCGGAAAAGAAAATGCCT (antisense; DNA, all phosphorothioate, methylation of C not given here) [AS-II-890-20]    87.93
3. CCAGCACTATAAACAGACAG (DNA, all phosphorothioate, methylation of C not given here) [AS-II-1517-20]    91.75
4. CGGGTCCGTGATGGGCGCGA (dC*dG*dG*dG*dT*dC*dC*dG*dT*dG*dA*dT*dG*dG*dG*dC*dG*dC*dG*dA; antisense) [AS-II-217-20]    87.41
5. GCAAAGGCTACAACACGTTC (antisense; DNA, all phosphorothioate, methylation of C not given here) [AS-II-861-20]    87.33
6. CsCCCsTCACsTCCsAGCsAGCsCTsT (antisense dC*dCdCdC*dTdCdAdC*dTdCdC*dAdGdC*dAdGdC*dCdT*dT) [AS-II-109-20]    61.51

Form: Entry = TTGTGTACCAGGTGTTTGAA (DNA, all phosphorothioate, methylation of C not given here) [AS-II-1023-20] | System = PC-3 prostrate cell adenocarcinoma | Reduced relative colony forming efficiency, expressed as % inhibition, PC-3 = ____
87.63

Next: GGCGACCCCTCACTCCAGCA (antisense dG*dG*dC*dG*dA*dC*dC*dC*dC*dT*dC*dA*dC*dT*dC*dC*dA*dG*dC*dA) [AS-II-114-20]
92.66

Next: GGGCACATCTTCAGTTCATT (DNA, all phosphorothioate, methylation of C not given here) [AS-II-1364-20]
79.01

Next: CCTCTGATACTCGCCTACTC (DNA, all phosphorothioate, methylation of C not given here) [AS-II-1288-20]
93.55

Next: GAGAAATAAAATGAAACGGC (antisense; DNA, all phosphorothioate, methylation of C not given here) [AS-II-2164-20]
83.36

Next: GCCACAGGATAAAAACACAA (antisense; DNA, all phosphorothioate, methylation of C not given here) [AS-II-2009-20]
83.36

Next: TCGCCTACTCTCTTCTCAAA (DNA, all phosphorothioate, methylation of C not given here) [AS-II-1278-20]
85.31

Next: GCTATTATCGCCGCCGTGAG (DNA, all phosphorothioate, methylation of C not given here) [AS-II-1773-20]
70.04

Next: TGGCACCAACTGACTAATAT (antisense; DNA, all phosphorothioate, methylation of C not given here) [AS-II-1976-20]
88.16

Next: GAAGCCATAGAAACAGCGGG (antisense; DNA, all phosphorothioate, methylation of C not given here) [AS-II-667-20]
91.8

Next: TTAGAAGTCAGCATCCAAGG (DNA, all phosphorothioate, methylation of C not given here) [AS-II-1345-20]
89.58

Next: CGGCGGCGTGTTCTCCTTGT (dC*dG*dG*dC*dG*dG*dC*dG*dT*dG*dT*dT*dC*dT*dC*dC*dT*dT*dG*dT; antisense) [AS-II-280-20]
77.51

Next: GCAAAGAAAGCCAGAACATG (dG*dC*dA*dA*dA*dG*dA*dA*dA*dG*dC*dC*dA*dG*dA*dA*dC*dA*dT*dG; antisense) [AS-II-579-20]
88.16

Next: CCCAGGACACTACACAAGCC (antisense; DNA, all phosphorothioate, methylation of C not given here) [AS-II-2026-20]
95.29

Next: GGAAGATGACAAAGCGGCGG (dG*dG*dA*dA*dG*dA*dT*dG*dA*dC*dA*dA*dA*dG*dC*dG*dG*dC*dG*dG; antisense) [AS-II-425-20]
75.65
